experiment: Non-renal clearance in nephrectomized Sprague-Dawley rat at 0.1 mg/kg, iv administered as cassette dose by LC-MS/MS analysis; type: ADME, organism-based; conditions: in vivo
Numbered stars: 1 amine (or outer) side, 2 acyl side, 3 side chain; on linkers, the order of the positions; unused ones are H or OH. Bridge positions count the residues as written; N and C are the ends. Square brackets hold non-standard residues; d marks the D form. Peptide text beside a SMILES is read from it. * marks the point of attachment. Phe(4-Cl) = N[C@@H](Cc1ccc(Cl)cc1)C(=O)O; 2Thi = N[C@@H](Cc1cccs1)C(=O)O; Agmatine = N=C(N)NCCCCN*; Thz = O=C(O)[C@@H]1CSCN1; X1 = O=C(CCC[*:2])[*:1]
Result Type: CL (%)

| Compound | Result Type | Units Text | Data Value |
| --- | --- | --- | --- |
| CCNC(=O)[C@@H](CCCNC(=N)N)NC(=O)[C@@H]1CSCN1C(=O)[C@@H]1CSCCCC(=O)N[C@@H](Cc2ccc(Cl)cc2)C(=O)N[C@@H](Cc2cccs2)C(=O)N[C@@H](C(C)C)C(=O)N[C@@H](CC(N)=O)C(=O)N1 | CL | % | 80 |
| NC(=O)CC[C@@H]1NC(=O)[C@H](Cc2ccccc2)NC(=O)[C@H](Cc2ccc(O)cc2)NC(=O)CCSSC[C@@H](C(=O)N2CCC[C@H]2C(=O)N[C@H](CCCN=C(N)N)C(=O)NCC(N)=O)NC(=O)[C@H](CC(N)=O)NC1=O | CL | % | 11 |
| CC(C)CNC(=O)[C@@H](CCCNC(=N)N)NC(=O)[C@@H]1CCCN1C(=O)[C@@H]1CCSCCC(=O)N[C@@H](Cc2ccc(Cl)cc2)C(=O)N[C@@H](Cc2ccccc2)C(=O)N[C@@H](C(C)C)C(=O)N[C@@H](CC(N)=O)C(=O)N1 | CL | % | 88 |
| CCCNC(=O)[C@@H](CCCNC(=N)N)NC(=O)[C@@H]1CSCN1C(=O)[C@@H]1CSCCCC(=O)N[C@@H](Cc2ccc(Cl)cc2)C(=O)N[C@@H](Cc2cccs2)C(=O)N[C@@H](C(C)C)C(=O)N[C@@H](CC(N)=O)C(=O)N1 | CL | % | 90 |
| CC(C)NC(=O)[C@@H](CCCNC(=N)N)NC(=O)[C@@H]1CCCN1C(=O)[C@@H]1CSCCCC(=O)N[C@@H](Cc2ccc(Cl)cc2)C(=O)N[C@@H](Cc2cccs2)C(=O)N[C@@H](C(C)C)C(=O)N[C@@H](CC(N)=O)C(=O)N1 | CL | % | 58 |
| CC(C)[C@@H]1NC(=O)[C@H](Cc2cccs2)NC(=O)[C@H](Cc2ccc(Cl)cc2)NC(=O)CCCSC[C@@H](C(=O)N2CSC[C@H]2C(=O)NCCCCNC(=N)N)NC(=O)[C@H](CC(N)=O)NC1=O ([Phe(4-Cl)][2Thi]VNC[Thz]-Agmatine; linker N-5 via X1) | CL | % | 90 |
| CCNC(=O)[C@@H](CCCNC(=N)N)NC(=O)[C@@H]1CCCN1C(=O)[C@@H]1CCSCCC(=O)N[C@@H](Cc2ccc(Cl)cc2)C(=O)N[C@@H](Cc2cccs2)C(=O)N[C@@H](C(C)C)C(=O)N[C@@H](CC(N)=O)C(=O)N1 | CL | % | 67 |
| CCNC(=O)[C@@H](CCCNC(=N)N)NC(=O)[C@@H]1CCCN1C(=O)[C@@H]1CSSCCC(=O)N[C@@H](Cc2ccc(Cl)cc2)C(=O)N[C@@H](Cc2ccccc2)C(=O)N[C@@H](C(C)C)C(=O)N[C@@H](CC(N)=O)C(=O)N1 | CL | % | 47 |
